- Assayed Target: Large neutral amino acids transporter small subunit 1 (Homo sapiens, UniProt Q01650)
- Sequence (Q01650 whole entry): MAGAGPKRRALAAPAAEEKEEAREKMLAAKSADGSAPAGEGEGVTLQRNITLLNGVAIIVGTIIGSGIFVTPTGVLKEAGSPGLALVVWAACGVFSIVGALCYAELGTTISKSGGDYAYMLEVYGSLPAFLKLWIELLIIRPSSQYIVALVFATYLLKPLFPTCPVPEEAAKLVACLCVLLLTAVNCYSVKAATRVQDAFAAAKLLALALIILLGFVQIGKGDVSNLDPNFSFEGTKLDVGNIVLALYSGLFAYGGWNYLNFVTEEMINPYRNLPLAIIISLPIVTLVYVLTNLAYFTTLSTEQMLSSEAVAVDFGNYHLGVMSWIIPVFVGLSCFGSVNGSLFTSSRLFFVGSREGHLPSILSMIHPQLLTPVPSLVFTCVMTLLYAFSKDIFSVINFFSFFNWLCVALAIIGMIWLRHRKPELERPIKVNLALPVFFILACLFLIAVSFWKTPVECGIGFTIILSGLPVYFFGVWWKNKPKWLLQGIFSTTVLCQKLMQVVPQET
- Test Name: Cis-inhibition of human LAT1 expressed in TREx HEK293 cells at 200 uM assessed as inhibition of [3H]-gabapentin uptake preincubated for 3 mins at 37 degC followed by washing with choline buffer and measured after 3 hrs by scintillation counting analysis relative to BCH
Quantity: IC50 (µM)

For orientation, consider the following solved cases.
Molecule	Readout Unit	Value
N[C@H](Cc1c[nH]cn1)C(=O)O [D-HISTIDINE]	µM	460
N[C@@H](Cc1ccccc1)C(=O)O [PHENYLALANINE]	µM	69
CSCC[C@@H](N)C(=O)O	µM	120
N[C@H](Cc1c[nH]c2ccccc12)C(=O)O [D-TRYPTOPHAN]	µM	380

a = CC(C)C[C@H](N)C(=O)O [LEUCINE]
b = C[C@@](N)(Cc1ccccc1)C(=O)O
c = COC(=O)c1ccc(C[C@H](N)C(=O)O)cc1
Sort (3 molecules) by IC50: min first. Give the labels in the order requested.
a, c, b
(a: 85 µM, c: 260 µM, b: 810 µM)

----------
- Assayed Target: Large neutral amino acids transporter small subunit 1 (Homo sapiens)
- Test Name: Cis-inhibition of human LAT1 expressed in TREx HEK293 cells at 200 uM assessed as inhibition of [3H]-gabapentin uptake preincubated for 3 mins at 37 degC followed by washing with choline buffer and measured after 3 hrs by scintillation counting analysis relative to BCH
pIC50: −log10 of the molar value.
Quantity: pIC50

Use these answered entries as a reference point.
Compound	pIC50
N[C@@H](Cc1cccnc1)C(=O)O	4.16
C[C@](N)(Cc1ccccc1)C(=O)O	3.89
N[C@H](Cc1ccccc1)C(=O)O [D-PHENYLALANINE]	4.34
COC(=O)Cc1cccc(C[C@H](N)C(=O)O)c1	4.12
N[C@@H](Cc1cccc(CO)c1)C(=O)O	4.08

I = N[C@@H](Cc1cccc(C(=O)OCCO)c1)C(=O)O
II = CC(=O)c1cccc(C[C@H](N)C(=O)O)c1
Which shows the larger pIC50 value: I or II ? # answer = label of selected item
I
(I: 4.54, II: 4.04)
